Known koff of a selection of binders
Experimental system: T1, human LTBP3-proTGFβ1 complex (human, UniProt Q9NS15 44-1303; P01137 30-390, limits assumed)
T1 construct: Exemplary entries; also called Hu LTBP3-proTGFβ1; huLTBP3 proTGFb1
T1 sequence (Q9NS15 44-1303 limits assumed, chain 1 of 2): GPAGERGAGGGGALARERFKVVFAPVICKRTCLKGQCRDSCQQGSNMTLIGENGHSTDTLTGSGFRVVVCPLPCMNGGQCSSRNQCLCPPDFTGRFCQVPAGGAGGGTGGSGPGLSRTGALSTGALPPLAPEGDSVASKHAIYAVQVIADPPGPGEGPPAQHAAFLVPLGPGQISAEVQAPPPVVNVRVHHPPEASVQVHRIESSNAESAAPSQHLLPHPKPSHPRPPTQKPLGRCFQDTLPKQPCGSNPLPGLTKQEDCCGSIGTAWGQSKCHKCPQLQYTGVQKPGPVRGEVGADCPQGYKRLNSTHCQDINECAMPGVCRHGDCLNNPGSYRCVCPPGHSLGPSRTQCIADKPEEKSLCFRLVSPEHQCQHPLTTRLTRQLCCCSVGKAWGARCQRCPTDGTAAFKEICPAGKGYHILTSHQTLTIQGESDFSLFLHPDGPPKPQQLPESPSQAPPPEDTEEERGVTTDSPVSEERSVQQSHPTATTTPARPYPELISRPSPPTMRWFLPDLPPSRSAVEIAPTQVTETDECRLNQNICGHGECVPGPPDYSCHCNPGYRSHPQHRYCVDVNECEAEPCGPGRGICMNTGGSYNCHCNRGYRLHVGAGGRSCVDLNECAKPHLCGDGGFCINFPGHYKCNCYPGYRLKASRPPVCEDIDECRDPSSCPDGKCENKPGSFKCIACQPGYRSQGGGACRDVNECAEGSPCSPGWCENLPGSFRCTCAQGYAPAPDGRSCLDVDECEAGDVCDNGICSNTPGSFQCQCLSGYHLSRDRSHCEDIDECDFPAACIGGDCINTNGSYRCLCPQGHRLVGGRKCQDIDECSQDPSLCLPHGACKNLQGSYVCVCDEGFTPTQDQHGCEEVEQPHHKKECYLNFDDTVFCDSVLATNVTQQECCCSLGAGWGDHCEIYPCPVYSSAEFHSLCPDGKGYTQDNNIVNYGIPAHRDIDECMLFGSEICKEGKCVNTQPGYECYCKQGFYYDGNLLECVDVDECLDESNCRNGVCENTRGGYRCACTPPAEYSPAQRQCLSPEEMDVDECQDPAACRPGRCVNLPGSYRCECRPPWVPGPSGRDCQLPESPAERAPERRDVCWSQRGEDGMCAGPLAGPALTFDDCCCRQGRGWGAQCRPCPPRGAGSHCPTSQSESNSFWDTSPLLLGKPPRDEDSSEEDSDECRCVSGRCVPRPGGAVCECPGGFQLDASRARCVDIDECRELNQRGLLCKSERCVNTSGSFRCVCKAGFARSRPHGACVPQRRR
T1 sequence (P01137 30-390 limits assumed, chain 2 of 2): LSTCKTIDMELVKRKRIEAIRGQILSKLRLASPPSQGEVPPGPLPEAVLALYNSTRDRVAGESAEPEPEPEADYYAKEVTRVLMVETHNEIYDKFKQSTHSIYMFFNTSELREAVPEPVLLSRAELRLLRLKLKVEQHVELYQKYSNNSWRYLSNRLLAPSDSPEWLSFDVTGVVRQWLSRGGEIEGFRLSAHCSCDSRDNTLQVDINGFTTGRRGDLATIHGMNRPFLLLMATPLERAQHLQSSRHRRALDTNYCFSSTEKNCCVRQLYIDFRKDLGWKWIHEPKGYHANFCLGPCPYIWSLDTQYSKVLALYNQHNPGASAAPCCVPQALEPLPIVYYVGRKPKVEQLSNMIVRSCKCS
Assay explanation: Octet BLI, IgG captured
Method: Binding affinities of the optimized antibodies were measured by Octet against human LTBP1-proTGFβ1, human LTBP3-proTGFβ1, mouse LTBP1-proTGFβ1, mouse LTBP3-proTGFβ1, and GARP-proTGFβ1 complexes, essentially as described in Example 6. […] The antigens were allowed to associate for 3 minutes followed by a 5-minute dissociation. Kinetics buffer (ForteBio®) was used throughout the experiment, and KD was determined using a 1:1 fitting model for each antibody antigen pair.
The answer is to be given in s⁻¹; state only the numeric part.

Check out these entries, answers already filled in.
{"columns": ["Binder", "Assay value"],
 "data": [
  ["SR-AB62 (antibody, IgG1, V domains shown, Cycle 3, lineage SR-AB24) VH: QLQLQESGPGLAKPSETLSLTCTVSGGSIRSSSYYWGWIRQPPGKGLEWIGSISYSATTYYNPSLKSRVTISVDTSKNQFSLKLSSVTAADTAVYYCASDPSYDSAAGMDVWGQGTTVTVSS VL: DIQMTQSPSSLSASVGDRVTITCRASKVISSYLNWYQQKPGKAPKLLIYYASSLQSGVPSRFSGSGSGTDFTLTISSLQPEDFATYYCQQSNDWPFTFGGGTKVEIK", "7.47e-05"],
  ["SR-AB31 (antibody, IgG1, V domains shown, Cycle 3, lineage SR-AB22) VH: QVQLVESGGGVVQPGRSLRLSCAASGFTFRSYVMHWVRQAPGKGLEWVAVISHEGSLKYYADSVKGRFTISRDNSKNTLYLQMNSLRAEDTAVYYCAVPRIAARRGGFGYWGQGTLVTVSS VL: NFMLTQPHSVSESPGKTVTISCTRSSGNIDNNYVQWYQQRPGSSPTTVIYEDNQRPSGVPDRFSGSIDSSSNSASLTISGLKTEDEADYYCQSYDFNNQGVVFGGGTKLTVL", "6.81e-05"],
  ["SR-AB38 (antibody, IgG1, V domains shown, Cycle 3, lineage SR-AB22) VH: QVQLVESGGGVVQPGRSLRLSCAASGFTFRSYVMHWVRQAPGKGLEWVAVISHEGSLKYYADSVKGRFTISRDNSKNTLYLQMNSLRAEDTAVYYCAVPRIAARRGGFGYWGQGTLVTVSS VL: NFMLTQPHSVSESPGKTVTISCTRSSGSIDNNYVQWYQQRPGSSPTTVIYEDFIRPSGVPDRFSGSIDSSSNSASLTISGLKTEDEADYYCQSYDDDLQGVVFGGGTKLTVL", "7.26e-05"],
  ["SR-AB39 (antibody, IgG1, V domains shown, Cycle 3, lineage SR-AB22) VH: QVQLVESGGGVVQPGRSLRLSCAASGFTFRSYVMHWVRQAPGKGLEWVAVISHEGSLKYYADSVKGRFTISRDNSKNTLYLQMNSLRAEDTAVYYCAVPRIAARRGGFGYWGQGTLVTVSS VL: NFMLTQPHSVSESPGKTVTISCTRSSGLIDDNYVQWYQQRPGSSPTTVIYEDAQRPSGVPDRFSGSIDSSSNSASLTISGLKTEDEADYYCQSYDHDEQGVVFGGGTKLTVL", "6e-05"],
  ["SR-AB41 (antibody, IgG1, V domains shown, Cycle 3, lineage SR-AB23) VH: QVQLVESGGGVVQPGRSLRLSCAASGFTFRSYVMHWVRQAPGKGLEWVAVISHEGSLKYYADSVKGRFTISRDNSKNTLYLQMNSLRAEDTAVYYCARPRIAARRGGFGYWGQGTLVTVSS VL: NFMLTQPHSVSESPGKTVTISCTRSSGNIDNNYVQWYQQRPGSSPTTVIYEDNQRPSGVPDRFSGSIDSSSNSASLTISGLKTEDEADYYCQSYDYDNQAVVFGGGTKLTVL", "6e-05"],
  ["SR-AB63 (antibody, IgG1, V domains shown, Cycle 3, lineage SR-AB26) VH: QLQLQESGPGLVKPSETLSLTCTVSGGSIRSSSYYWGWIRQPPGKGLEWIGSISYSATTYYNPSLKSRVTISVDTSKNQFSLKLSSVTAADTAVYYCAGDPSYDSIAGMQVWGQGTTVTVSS VL: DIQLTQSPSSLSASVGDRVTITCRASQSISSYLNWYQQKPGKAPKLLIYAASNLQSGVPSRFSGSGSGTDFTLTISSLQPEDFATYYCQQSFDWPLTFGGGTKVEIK", "7.84e-05"]
]}

Read the next record carefully.
Prompt line: Report koff, nothing else, for this binder: SR-AB45 (antibody, IgG1, V domains shown, Cycle 3, lineage SR-AB23) VH: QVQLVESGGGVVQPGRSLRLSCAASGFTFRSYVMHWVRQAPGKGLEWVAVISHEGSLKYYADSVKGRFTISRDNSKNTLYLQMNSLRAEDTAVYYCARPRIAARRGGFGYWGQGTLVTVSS VL: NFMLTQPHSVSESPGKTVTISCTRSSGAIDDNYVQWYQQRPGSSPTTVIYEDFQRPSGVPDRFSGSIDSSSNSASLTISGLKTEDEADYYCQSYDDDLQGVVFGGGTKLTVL
Response line: 6e-05
